# Lookup of reported cytotoxicity at 10 µM keyed by entry
# PROTOCOL: Toxicity liver stage against HepG2, at 10uM
# Assay type: cell-based
# Design: test concentration 10 uM, cell line HepG2-A16-CD81EGFP
# RUN_PARAMETERS: human, HepG2-A16-CD81EGFP cells; read-out: INHIBITION
PARAMETER: cytotoxicity at 10 µM (%)

> print(dat)
                                    compound              parameter  measure.unit  result
 1  CCCS(=O)(=O)C(C)C(=O)Nc1ccc2oc(C3CC3)nc2c1 (configuration not stated)  cytotoxicity at 10 µM             %     5.3
 2  COc1cccc(CC(=O)N2CCCSCC2CN2CCCC2)c1 (configuration not stated)  cytotoxicity at 10 µM             %   -1.42
 3            Cc1ncsc1C(=O)N(C)Cc1cccc(Cl)c1  cytotoxicity at 10 µM             %   -1.27
 4  O=C(CCC(=O)N1CCc2[nH]c3ccccc3c2C1)NCc1ccco1  cytotoxicity at 10 µM             %    3.59
 5     NC(=O)NC(=O)CNc1cccc(C(=O)c2ccccc2)c1  cytotoxicity at 10 µM             %    7.95
 6  COc1c(C)cnc(CNC(=O)c2cc(C)nc3onc(C)c23)c1C  cytotoxicity at 10 µM             %  -0.947
 7  CC1CN(C)CCN1C(=O)c1cnc2onc(CC(C)(C)C)c2c1 (configuration not stated)  cytotoxicity at 10 µM             %    -1.6
 8  NC(=O)c1ccc(NC2CCOC3(CCCC3)C2)nn1 (configuration not stated)  cytotoxicity at 10 µM             %   -3.13
 9     CC(C)(NCC(=O)NCC1CC1)c1ccc2c(c1)OCCO2  cytotoxicity at 10 µM             %    -9.8
10    COc1ccc(OC)c(-n2c(COC(C)C)n[nH]c2=O)c1  cytotoxicity at 10 µM             %    7.78
11       NCCc1nc(N(Cc2nccs2)C2CC2)c2ccccc2n1  cytotoxicity at 10 µM             %   -16.1
12  Cc1cc(C)n(CCNCc2cc(-c3ccc(F)cc3)c[nH]c2=O)n1  cytotoxicity at 10 µM             %   -5.24

====

# PROTOCOL: Toxicity liver stage against HepG2, at 10uM
# Assay type: cell-based
# Set-up: test concentration 10 uM, cell line HepG2-A16-CD81EGFP
# RUN_PARAMETERS: human, HepG2-A16-CD81EGFP cells; read-out: INHIBITION
Entries and their cytotoxicity at 10 µM
PARAMETER: cytotoxicity at 10 µM (%)

> print(dat)
                                    compound  result
 1  Cc1cnn(C2CCCN(C(=O)c3cc(Cl)c4c(c3)OCO4)C2)c1 (stereo unspecified)   -5.25
 2  Cc1ccc(CN2CC[C@@H](O)[C@@H]2Cc2cnn(C)c2)o1     -71
 3  CC(NCC(=O)N(C)C1CC1)c1ccc(S(C)(=O)=O)c(F)c1 (stereo unspecified)    6.27
 4     Cc1ccccc1C(=O)Nc1ccc(OC2CCN(C)CC2)cc1   -1.57
 5       Cc1cc(C(=O)NCCN2CCCCCC2)nn1C(C)(C)C    2.45
 6    Cn1ccc(C(=O)N2CCN(Cc3ccccc3F)CC2)cc1=O   -1.44
 7  CCS(=O)(=O)CC(=O)NC(c1ccc(F)cc1)C1CCCC1 (stereo unspecified)    4.57
 8  COCC(=O)N1CCCC(C(=O)NCc2cc(CC(C)C)on2)C1 (stereo unspecified)    10.6
 9   O=C(NCc1cccnc1)Nc1cc(C(F)(F)F)c[nH]c1=O   -1.78
10     O=C(Cn1cc(C(=O)O)ccc1=O)Nc1cc(F)ccc1F   0.687
11   CCCc1nc(C)c(C(=O)NC2CCN(c3ncccn3)CC2)s1    16.7
